- Tested on: F. varium ATCC8501
attribute-measured: MIC (µg/mL)

>>> print(df.to_string())
                                   compound  reported_result
0  CCOCC1=C(C(=O)O)N2C(=O)[C@H]([C@@H](C)O)[C@H]2S1 (relative stereo) [SUN 3519, reference compound]             0.39
1  C[C@@H](O)[C@H]1C(=O)N2C(C(=O)O)=C([C@H]3CCCCO3)S[C@H]12             0.39
2  C[C@@H](O)[C@H]1C(=O)N2C(C(=O)O)=C([C@@H]3CCC(=O)O3)S[C@H]12             3.13

###

The molecules below have reported MIC for K. pneumoniae PC1602.
attribute-measured: MIC (µg/mL)

In [3]: df
Out[3]:
                               input_smiles  reported_result
0  C[C@@H](O)[C@H]1C(=O)N2C(C(=O)O)=C([C@@H]3CCC(=O)O3)S[C@H]12             1.56
1  C[C@@H](O)[C@H]1C(=O)N2C(C(=O)O)=C([C@@H]3CCCCO3)S[C@H]12             3.13
2  C[C@@H](O)[C@H]1C(=O)N2C(C(=O)O)=C([C@@H]3CCOC3)S[C@H]12             0.05

###

- Test system: K. pneumoniae PC1602
attribute-measured: MIC (µg/mL)

In [3]: df
Out[3]:
                                    molecule                target  reported_result
 0  CCSCC1=C(C(=O)O)N2C(=O)[C@H]([C@@H](C)O)[C@H]2S1 (relative stereo) [SUN 3515, reference compound]  K. pneumoniae PC1602             0.78
 1  C[C@@H](O)[C@H]1C(=O)N2C(C(=O)O)=C(Cc3ccsc3)S[C@H]12 (relative stereo) [SUN 3514, reference compound]  K. pneumoniae PC1602             0.78
 2  C[C@@H](O)[C@H]1C(=O)N2C(C(=O)O)=C([C@H]3CCOC3)S[C@H]12 [SUN 4725]  K. pneumoniae PC1602              0.1
 3  C[C@@H](O)[C@H]1C(=O)N2C(C(=O)O)=C([C@@H]3COCCO3)S[C@H]12 [SUN 4770]  K. pneumoniae PC1602             0.78
 4  C[C@@H](O)[C@H]1C(=O)N2C(C(=O)O)=C(c3ccco3)S[C@H]12 (relative stereo) [SUN 4194, reference compound]  K. pneumoniae PC1602             3.13
 5  C[C@@H](O)[C@H]1C(=O)N2C(C(=O)O)=C([C@H]3CCCO3)S[C@H]12 [SUN 4435]  K. pneumoniae PC1602              0.1
 6  C[C@@H](O)[C@H]1C(=O)N2C(C(=O)O)=C(C3CCCO3)S[C@H]12 (relative stereo) [SUN 4068]  K. pneumoniae PC1602             0.39
 7  CCOCC1=C(C(=O)O)N2C(=O)[C@H]([C@@H](C)O)[C@H]2S1 (relative stereo) [SUN 3519, reference compound]  K. pneumoniae PC1602             1.56
 8  C[C@@H](O)[C@H]1C(=O)N2C(C(=O)O)=C(c3ccoc3)S[C@H]12 (relative stereo) [SUN 4196, reference compound]  K. pneumoniae PC1602             3.13
 9  C[C@@H](O)[C@H]1C(=O)N2C(C(=O)O)=C(C3COCCO3)S[C@H]12 (mixture of isomers) [SUN 4742]  K. pneumoniae PC1602              0.1
10  C[C@@H](O)[C@H]1C(=O)N2C(C(=O)O)=C([C@H]3COCCO3)S[C@H]12 [SUN 4771]  K. pneumoniae PC1602             0.05
11  COCC1=C(C(=O)O)N2C(=O)[C@H]([C@@H](C)O)[C@H]2S1 (relative stereo) [SUN 3585, reference compound]  K. pneumoniae PC1602             0.78
12  C[C@@H](O)[C@H]1C(=O)N2C(C(=O)O)=C([C@H]3CCCCO3)S[C@H]12 [SUN 4741]  K. pneumoniae PC1602              0.1
13  C[C@@H](O)[C@H]1C(=O)N2C(C(=O)O)=C([C@H]3CCC(=O)O3)S[C@H]12 [SUN 4374]  K. pneumoniae PC1602             0.39
